biological target: UniProtKB P08482; assay: Compound was evaluated for its binding affinity towards muscarinic acetylcholine receptor in rat cortex
outcome measure: Ki (nM)
Give the value in nM but do not write nM after it.

Inquiry: Please report the recorded Ki for "O=C1CCCN1CC#CCN1CCC1" .
Reply text: 2250

Inquiry: Please report the recorded Ki for "CNCC#CCN1CCCC1=O" .
Reply text: 65500

Inquiry: Please report the recorded Ki for "O=C1CCCN1CC#CCN1CCCC1" .
Reply text: 196

Inquiry: Please report the recorded Ki for "CCN(C)CC#CCN1CCCC1=O" .
Reply text: 2690

* * *

Target: Muscarinic acetylcholine receptor M2 (Rattus norvegicus)
Sequence (P10980 whole entry): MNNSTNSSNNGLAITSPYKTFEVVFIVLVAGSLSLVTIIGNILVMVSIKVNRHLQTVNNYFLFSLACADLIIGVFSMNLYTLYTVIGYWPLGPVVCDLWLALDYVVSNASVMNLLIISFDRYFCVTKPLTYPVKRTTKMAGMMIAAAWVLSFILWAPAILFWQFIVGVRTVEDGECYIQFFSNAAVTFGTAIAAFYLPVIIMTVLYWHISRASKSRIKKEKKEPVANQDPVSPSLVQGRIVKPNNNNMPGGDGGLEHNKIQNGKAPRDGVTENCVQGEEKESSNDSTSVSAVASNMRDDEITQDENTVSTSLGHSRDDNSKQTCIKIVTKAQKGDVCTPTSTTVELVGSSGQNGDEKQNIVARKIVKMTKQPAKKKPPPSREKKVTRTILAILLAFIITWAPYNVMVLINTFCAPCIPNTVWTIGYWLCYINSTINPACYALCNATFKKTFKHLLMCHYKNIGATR
Test: Compound was evaluated for its binding affinity towards M2 receptor in rat brainstem
Assay type: tissue-based, Brain
outcome measure: pKi
In textbook form, pKi equals minus log to base ten of the concentration in mol/L.

Inquiry: Param readout= pKi; system= Muscarinic acetylcholine receptor M2 (Rattus norvegicus); entry= "O=C1CCCN1CC#CC[C@@H]1CCCN1" ; returns value.
Reply text: 5.25

Inquiry: Param readout= pKi; system= Muscarinic acetylcholine receptor M2 (Rattus norvegicus); entry= "CN1CCCC[C@H]1CC#CCN1CCCC1=O" ; returns value.
Reply text: 5.15

Inquiry: Param readout= pKi; system= Muscarinic acetylcholine receptor M2 (Rattus norvegicus); entry= "CN1CCC[C@H]1CC#CCN1CCCC1=O" ; returns value.
Reply text: 4.97

Inquiry: Param readout= pKi; system= Muscarinic acetylcholine receptor M2 (Rattus norvegicus); entry= "O=C1CCCN1CC#CC[C@H]1CCCCN1" ; returns value.
Reply text: 6.20

Inquiry: Param readout= pKi; system= Muscarinic acetylcholine receptor M2 (Rattus norvegicus); entry= "O=C1CCCN1CC#CC[C@@H]1CCCCN1" ; returns value.
Reply text: 4.80

Inquiry: Param readout= pKi; system= Muscarinic acetylcholine receptor M2 (Rattus norvegicus); entry= "CN1CCCC[C@@H]1CC#CCN1CCCC1=O" ; returns value.
Reply text: 5.44

Inquiry: Param readout= pKi; system= Muscarinic acetylcholine receptor M2 (Rattus norvegicus); entry= "CN1CCC[C@@H]1CC#CCN1CCCC1=O" ; returns value.
Reply text: 5.23

Inquiry: Param readout= pKi; system= Muscarinic acetylcholine receptor M2 (Rattus norvegicus); entry= "O=C1CCCN1CC#CC[C@H]1CCCN1" ; returns value.
Reply text: 5.61

* * *

biological target: Muscarinic acetylcholine receptor M2 (Rattus norvegicus); assay: Compound was evaluated for its binding affinity towards Muscarinic acetylcholine receptor M2 in rat brainstem; assay type: tissue-based, Brain
outcome measure: pKi
In textbook form, pKi equals minus log to base ten of the concentration in mol/L.

Inquiry: Param readout= pKi; system= Muscarinic acetylcholine receptor M2 (Rattus norvegicus); entry= "CN(C)CC#CCN1CCCC1=O" ; returns value.
Reply text: 6.03

* * *

target: Muscarinic acetylcholine receptor M1 (Rattus norvegicus); experiment: Compound was evaluated for its binding affinity towards M1 receptor in rat cortex
Sequence (P08482 whole entry): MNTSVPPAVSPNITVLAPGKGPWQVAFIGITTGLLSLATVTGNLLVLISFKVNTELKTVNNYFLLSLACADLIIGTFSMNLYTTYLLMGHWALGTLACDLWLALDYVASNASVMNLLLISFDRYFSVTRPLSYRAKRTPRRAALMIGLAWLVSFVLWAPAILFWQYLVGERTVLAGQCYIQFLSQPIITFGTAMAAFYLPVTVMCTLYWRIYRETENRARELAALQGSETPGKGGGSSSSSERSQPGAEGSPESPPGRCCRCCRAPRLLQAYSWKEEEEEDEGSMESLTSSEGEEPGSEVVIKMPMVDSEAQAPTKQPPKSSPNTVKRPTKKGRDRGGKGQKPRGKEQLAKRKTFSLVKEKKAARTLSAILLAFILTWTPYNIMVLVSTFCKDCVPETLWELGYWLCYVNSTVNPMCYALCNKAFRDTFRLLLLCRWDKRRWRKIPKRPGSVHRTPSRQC
Answer each item with its documented Ki.
Give the value in µM but do not write µM after it.

Inquiry: Param readout= Ki; system= Muscarinic acetylcholine receptor M1 (Rattus norvegicus); entry= "O=C1CCCN1CC#CC[C@H]1CCCCN1" ; returns value.
Reply text: 3.03

Inquiry: Param readout= Ki; system= Muscarinic acetylcholine receptor M1 (Rattus norvegicus); entry= "CN1CCC[C@H]1CC#CCN1CCCC1=O" ; returns value.
Reply text: 10.5

Inquiry: Param readout= Ki; system= Muscarinic acetylcholine receptor M1 (Rattus norvegicus); entry= "O=C1CCCN1CC#CC[C@@H]1CCCCN1" ; returns value.
Reply text: 27.6

Inquiry: Param readout= Ki; system= Muscarinic acetylcholine receptor M1 (Rattus norvegicus); entry= "O=C1CCCN1CC#CC[C@@H]1CCCN1" ; returns value.
Reply text: 40.5

Inquiry: Param readout= Ki; system= Muscarinic acetylcholine receptor M1 (Rattus norvegicus); entry= "CN1CCC[C@@H]1CC#CCN1CCCC1=O" ; returns value.
Reply text: 5.46

Inquiry: Param readout= Ki; system= Muscarinic acetylcholine receptor M1 (Rattus norvegicus); entry= "CN1CCCC[C@H]1CC#CCN1CCCC1=O" ; returns value.
Reply text: 5.38

Inquiry: Param readout= Ki; system= Muscarinic acetylcholine receptor M1 (Rattus norvegicus); entry= "CN1CCCC[C@@H]1CC#CCN1CCCC1=O" ; returns value.
Reply text: 1.2

Inquiry: Param readout= Ki; system= Muscarinic acetylcholine receptor M1 (Rattus norvegicus); entry= "O=C1CCCN1CC#CC[C@H]1CCCN1" ; returns value.
Reply text: 3.07

* * *

molecular target: Muscarinic acetylcholine receptor M1 (Rattus norvegicus) (UniProt P08482); assay: Intrinsic activity against Muscarinic acetylcholine receptor M1 in rat cortex (activity expressed as % response of that produced by carbachol); assay type: functional
outcome measure: Response (%)
Give the value in % but do not write % after it.

Inquiry: Param readout= Response; system= Muscarinic acetylcholine receptor M1 (Rattus norvegicus) (UniProt P08482); entry= "O=C1CCCN1CC#CCN1CCC1" ; returns value.
Reply text: 46.2

Inquiry: Param readout= Response; system= Muscarinic acetylcholine receptor M1 (Rattus norvegicus) (UniProt P08482); entry= "CNCC#CCN1CCCC1=O" ; returns value.
Reply text: 5.7

Inquiry: Param readout= Response; system= Muscarinic acetylcholine receptor M1 (Rattus norvegicus) (UniProt P08482); entry= "CCN(C)CC#CCN1CCCC1=O" ; returns value.
Reply text: 2.75

Inquiry: Param readout= Response; system= Muscarinic acetylcholine receptor M1 (Rattus norvegicus) (UniProt P08482); entry= "O=C1CCCN1CC#CCN1CCCC1" ; returns value.
Reply text: 13.7

* * *

molecular target: UniProtKB P10980; test: Compound was evaluated for its binding affinity towards muscarinic acetylcholine receptor M2 in rat brainstem; type: tissue-based, Brain
Answer each item with its documented Ki.
Put down the number, then write its unit next to it.

Inquiry: Param readout= Ki; system= UniProtKB P10980; entry= "O=C1CCCN1CC#CCN1CCC1" ; returns value.
Reply text: 27.4 nM

Inquiry: Param readout= Ki; system= UniProtKB P10980; entry= "CNCC#CCN1CCCC1=O" ; returns value.
Reply text: 38100 nM

Inquiry: Param readout= Ki; system= UniProtKB P10980; entry= O=C1CCCN1CC#CCN1CCCC1 [OXOTREMORINE] ; returns value.
Reply text: 84 nM

Inquiry: Param readout= Ki; system= UniProtKB P10980; entry= "CCN(C)CC#CCN1CCCC1=O" ; returns value.
Reply text: 813 nM
